Assay Comment: Superoxyl radical (O2) scavenging reaction rate constant in competition with nitro-blue tetrazolium of superoxyl radicals formed by xanthine oxidase in the presence of xanthine
Type: functional
Property Name: log10 of Rate constant (log10 of the value in M⁻¹ s⁻¹)
Plainly stated, the numbers are log10 of Rate constant given in M⁻¹ s⁻¹.

Cc1c(C)c2c(c(C)c1O)C(CN1CCN(CCOCCO)CC1)C(C)(C)O2 (stereo not given)
4.93
Cc1c(C)c2c(c(C)c1O)CCC(C)(CCN(C)C)O2 (stereo not given)
4.43
Cc1c(C)c2c(c(C)c1O)C(CN1CCN(CCO)CC1)C(C)(C)O2 (stereo not given)
4.95
Cc1c(C)c2c(c(C)c1O)C(C(=O)N1CCN(C)CC1)C(C)(C)O2 (stereo not given)
4.92

### Prompt Form field: reported log10 of Rate constant of Cc1c(C)c2c(c(C)c1O)C(CN(C)C)C(C)(C)O2 (stereo not given)
### Response 5.18

### Prompt Which value of log10 of Rate constant has been reported for Cc1c(C)c2c(c(C)c1O)CCC(C)(CC[N+](C)(C)C)O2.Cc1ccc(S(=O)(=O)[O-])cc1 (stereo not given) in the records?
### Response 4.38

### Prompt For the compound shown here, Cc1c(C)c2c(c(C)c1O)C(C[N+](C)(C)C)C(C)(C)O2 (stereo not given) , give the reported log10 of Rate constant.
### Response 4.69

### Prompt // lookup log10 of Rate constant for Cc1c(C)c2c(c(C)c1O)C(CN1CCCCC1)C(C)(C)O2 (stereo not given)
### Response 4.95

### Prompt # lookup: log10 of Rate constant of Cc1c(C)c2c(c(C)c1O)C(CNC(C)C)C(C)(C)O2 (stereo not given)
### Response 5.52

### Prompt Using the record for Cc1c(C)c2c(c(C)c1O)C(C(=O)N1CCN(CCO)CC1)C(C)(C)O2 (stereo not given) , report its log10 of Rate constant.
### Response 4.63
